Values of log10 of IC50 for Poly [ADP-ribose] polymerase tankyrase-1 (Homo sapiens), collected from a number of published sources:
Units before log transform: nM; reported quantity: IC50; transform: log10.

Here are 10 molecules together with their reported answers.
Cc1cc(C)n2ncc(C(=O)N[C@H]3CC[C@@]4(CCN(c5ccccc5Cl)C4=O)CC3)c2n1 : 1.00
O=C(N[C@H]1CC[C@H](C(=O)Nc2ccncc2Cl)CC1)c1cnn2cccnc12 : 2.28
CC(C)CN(Cc1nc2c(c(=O)[nH]1)COCC2)C(=O)CN1CCC(C(=O)c2ccc(F)cc2)CC1 : 1.85
Cc1cccc2c(=O)[nH]c3c(c12)COC(C1CCN(C(=O)C2(C)CC2)CC1)C3 (racemic) : 1.24
CC(=O)N1CCN(c2nc3c(ccn3C)c(=O)[nH]2)CC1 : 2.67
O=c1[nH]c(-c2ccc(C(F)(F)F)cc2)nc2[nH]ccc12 : 2.04
Cc1cc(N2CC[C@]3(CC[C@@H](NC(=O)c4cnn5cccnc45)CC3)C2=O)c(Cl)cc1F : 1.00
O=C(CN1CCC(n2cc(-c3ccccc3)cn2)CC1)NCc1nc2c(c(=O)[nH]1)COCC2 : 3.35
O=C(CCc1ccccc1)N(Cc1nc2c(c(=O)[nH]1)COCC2)CC1CCCC1 : 3.68
COC(C)(C)CNC(=O)c1nc[nH]c1C(=O)N[C@H]1CC[C@H](C(=O)Nc2cc(C)c(F)cc2Cl)CC1 : 2.20

Now for the molecule whose log10 of IC50 we want.
// query Name the recorded log10 of IC50 for `Cn1ccc2c(=O)[nH]c(N3CCN(c4ccc(F)cc4F)CC3)nc21` .
// result 1.49
